molecular target: Toll-like receptor 4 (TLR4) (UniProt O00206 24-839); assay: cell-based or functional assay
Sequence (O00206 24-839): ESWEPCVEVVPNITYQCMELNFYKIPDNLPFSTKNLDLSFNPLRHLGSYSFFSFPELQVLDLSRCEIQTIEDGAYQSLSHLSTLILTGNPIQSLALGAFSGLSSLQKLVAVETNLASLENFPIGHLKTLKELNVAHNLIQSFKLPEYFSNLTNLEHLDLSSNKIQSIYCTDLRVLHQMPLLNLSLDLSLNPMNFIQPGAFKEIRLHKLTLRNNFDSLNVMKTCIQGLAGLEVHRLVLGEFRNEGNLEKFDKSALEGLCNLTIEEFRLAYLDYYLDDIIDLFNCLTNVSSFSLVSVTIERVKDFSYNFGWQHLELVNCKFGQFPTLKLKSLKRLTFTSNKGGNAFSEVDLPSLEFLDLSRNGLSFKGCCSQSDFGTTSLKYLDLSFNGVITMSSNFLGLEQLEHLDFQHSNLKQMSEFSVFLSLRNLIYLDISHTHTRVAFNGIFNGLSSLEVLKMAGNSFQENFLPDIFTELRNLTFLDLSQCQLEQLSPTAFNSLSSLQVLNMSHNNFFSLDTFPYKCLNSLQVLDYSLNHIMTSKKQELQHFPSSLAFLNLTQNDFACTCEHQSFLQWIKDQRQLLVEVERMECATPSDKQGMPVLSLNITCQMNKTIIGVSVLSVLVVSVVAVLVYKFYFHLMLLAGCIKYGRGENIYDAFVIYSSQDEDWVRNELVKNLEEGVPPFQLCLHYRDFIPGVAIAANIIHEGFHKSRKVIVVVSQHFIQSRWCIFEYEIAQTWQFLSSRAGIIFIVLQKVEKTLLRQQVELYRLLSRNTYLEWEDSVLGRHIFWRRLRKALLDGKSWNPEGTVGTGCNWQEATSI
parameter measured: IL-8 secretion of TLR4+ cells after 24 h with 15 nM protein (sandwich ELISA) (ng/mL)
State the answer as a number, implicitly in ng/mL.

Look up and state reported IL-8 secretion of TLR4+ cells after 24 h with 15 nM protein (sandwich ELISA) for αS1-casein truncated variant N2 (domain or fragment, human, UniProt P47710 57-185, looked up) REKQTDEIKDTRNESTQNCVVAEPEKMESSISSSSEEMSLSKCAEQFCRLNEYNQLQLQAAHAQEQIRRMNENSHVQVPFQQLNQLAAYPYAVWYYPQIMQYVPFPPFSDISNPTAHENYEKNNVMLQW 4.8
